test_description: self-splicing fitness, log relative to wild type (ln ratio); higher = more splicing; Tetrahymena group I intron in knt gene, E. coli kanamycin selection, DiMSum; sequences stand for … in CUCUCU…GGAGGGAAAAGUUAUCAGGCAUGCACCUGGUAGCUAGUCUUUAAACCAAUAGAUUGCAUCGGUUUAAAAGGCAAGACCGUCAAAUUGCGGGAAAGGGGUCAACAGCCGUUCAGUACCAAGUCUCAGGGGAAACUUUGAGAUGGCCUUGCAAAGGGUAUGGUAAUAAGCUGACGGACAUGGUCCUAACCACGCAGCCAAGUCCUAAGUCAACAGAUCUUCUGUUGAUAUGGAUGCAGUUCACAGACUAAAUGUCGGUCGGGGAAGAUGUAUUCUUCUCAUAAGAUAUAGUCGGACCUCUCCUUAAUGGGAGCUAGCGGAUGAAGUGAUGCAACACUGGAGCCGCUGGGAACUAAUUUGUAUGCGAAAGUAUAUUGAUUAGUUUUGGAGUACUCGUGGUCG;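 note: selection with 25 µg/mL kanamycin versus none on LB agar overnight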
run_conditions: 30 °C
# Lookup of reported self-splicing fitness (ln) keyed by entry

{"chain": "AUUUAGCAAUAUUACGAAAG", "self-splicing fitness (ln)": -2.86}
{"chain": "UCGGAGCAAUAUUACGGAGA", "self-splicing fitness (ln)": -3.67}
{"chain": "GAACAGCAAUAUUACGAGUA", "self-splicing fitness (ln)": -2.87}
{"chain": "UUUGAGCAAUAUUACGAGAU", "self-splicing fitness (ln)": -3.65}
{"chain": "GUUGAGCAAUAUUACGUUAG", "self-splicing fitness (ln)": -4.58}

*Q* Please list self-splicing fitness (ln) recorded for the sequence GGUAAGCAAUAUUACGGCUG
*A* -0.805

*Q* Please list self-splicing fitness (ln) recorded for the sequence GACCAGCAAUAUUACGAAAC
*A* -1.43

*Q* Please list self-splicing fitness (ln) recorded for the sequence UUCCAGCAAUAUUACGAAAG
*A* -2.6

*Q* Please list self-splicing fitness (ln) recorded for the sequence UAUAAGCAAUAUUACGCGAU
*A* -3.6

*Q* Please list self-splicing fitness (ln) recorded for the sequence AGCAAGCAAUAUUACGGUAC
*A* -4.18

*Q* Please list self-splicing fitness (ln) recorded for the sequence UGAUAGCAAUAUUACGUUUA
*A* -2.2

*Q* Please list self-splicing fitness (ln) recorded for the sequence UUAUAGCAAUAUUACGGACC
*A* -3.38

*Q* Please list self-splicing fitness (ln) recorded for the sequence GCCGAGCAAUAUUACGCCAA
*A* -1.62

* * *

# Lookup of reported self-splicing fitness (ln) keyed by entry
test_description: self-splicing fitness, log relative to wild type (ln ratio); higher = more splicing; Tetrahymena group I intron in knt gene, E. coli kanamycin selection, DiMSum; sequences stand for … in CUCUCU…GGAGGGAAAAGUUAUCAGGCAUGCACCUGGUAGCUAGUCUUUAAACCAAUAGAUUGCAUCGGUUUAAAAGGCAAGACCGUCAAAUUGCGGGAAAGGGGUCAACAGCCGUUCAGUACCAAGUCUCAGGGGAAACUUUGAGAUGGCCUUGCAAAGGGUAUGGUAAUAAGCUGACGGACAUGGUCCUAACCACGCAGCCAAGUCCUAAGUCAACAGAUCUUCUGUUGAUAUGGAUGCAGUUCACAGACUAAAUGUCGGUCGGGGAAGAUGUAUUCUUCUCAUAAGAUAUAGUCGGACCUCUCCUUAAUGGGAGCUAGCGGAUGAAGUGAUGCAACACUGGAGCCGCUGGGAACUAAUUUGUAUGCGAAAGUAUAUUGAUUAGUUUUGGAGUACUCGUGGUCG
run_conditions: 30 °C
Please give the numeric answer without any surrounding text.

Answered examples (5):
{"chain": "CGUGAGCAAUAUUACGCAAG", "self-splicing fitness (ln)": -2.85}
{"chain": "ACGUAGCAAUAUUACGGCAA", "self-splicing fitness (ln)": -1.49}
{"chain": "AAGGAGCAAUAUUACGGAUA", "self-splicing fitness (ln)": -3.9}
{"chain": "GAGUAGCAAUAUUACGUCAA", "self-splicing fitness (ln)": -2.1}
{"chain": "UCCCAGCAAUAUUACGUGAC", "self-splicing fitness (ln)": -2.74}

*Q* Please list self-splicing fitness (ln) recorded for the sequence GCCUAGCAAUAUUACGGAAU
*A* -1.23

*Q* Please list self-splicing fitness (ln) recorded for the sequence UCUAAGCAAUAUUACGAUGC
*A* -3.03

*Q* Please list self-splicing fitness (ln) recorded for the sequence CGCCAGCAAUAUUACGCUCC
*A* -0.395

* * *

test_description: self-splicing fitness, log relative to wild type (ln ratio); higher = more splicing; Tetrahymena group I intron in knt gene, E. coli kanamycin selection, DiMSum; sequences stand for … in CUCUCU…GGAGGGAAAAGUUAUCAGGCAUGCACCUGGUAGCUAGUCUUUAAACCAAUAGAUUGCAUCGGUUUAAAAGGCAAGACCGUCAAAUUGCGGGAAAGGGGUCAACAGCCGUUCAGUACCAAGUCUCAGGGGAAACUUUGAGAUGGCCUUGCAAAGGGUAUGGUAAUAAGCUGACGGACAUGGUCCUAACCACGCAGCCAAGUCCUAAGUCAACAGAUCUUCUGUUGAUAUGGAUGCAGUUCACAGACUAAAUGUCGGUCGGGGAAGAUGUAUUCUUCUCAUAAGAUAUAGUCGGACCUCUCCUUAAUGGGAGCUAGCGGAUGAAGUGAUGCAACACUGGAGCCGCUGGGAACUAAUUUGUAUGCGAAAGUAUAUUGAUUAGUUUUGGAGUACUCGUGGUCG
run_conditions: 30 °C
reported_metric: self-splicing fitness (ln)
Please give the numeric answer without any surrounding text.

Answered examples (6):
{"chain": "UUUCAGCAAUAUUACGGCAC", "measured": -1.79}
{"chain": "UUAUAGCAAUAUUACGUACU", "measured": -1.49}
{"chain": "GUUAAGCAAUAUUACGGCUU", "measured": -1.22}
{"chain": "CCUUAGCAAUAUUACGACUU", "measured": -3.8}
{"chain": "GGUGAGCAAUAUUACGGUUA", "measured": -2.58}
{"chain": "CAGAAGCAAUAUUACGAGGG", "measured": -2.99}

*Q* Please list self-splicing fitness (ln) recorded for the sequence UAGAAGCAAUAUUACGUUCC
*A* -2.51

*Q* Please list self-splicing fitness (ln) recorded for the sequence UACCAGCAAUAUUACGGCGC
*A* -1.32

*Q* Please list self-splicing fitness (ln) recorded for the sequence CAUCAGCAAUAUUACGACCU
*A* -2.49

* * *

test_description: self-splicing fitness, log relative to wild type (ln ratio); higher = more splicing; Tetrahymena group I intron in knt gene, E. coli kanamycin selection, DiMSum; sequences stand for … in CUCUCU…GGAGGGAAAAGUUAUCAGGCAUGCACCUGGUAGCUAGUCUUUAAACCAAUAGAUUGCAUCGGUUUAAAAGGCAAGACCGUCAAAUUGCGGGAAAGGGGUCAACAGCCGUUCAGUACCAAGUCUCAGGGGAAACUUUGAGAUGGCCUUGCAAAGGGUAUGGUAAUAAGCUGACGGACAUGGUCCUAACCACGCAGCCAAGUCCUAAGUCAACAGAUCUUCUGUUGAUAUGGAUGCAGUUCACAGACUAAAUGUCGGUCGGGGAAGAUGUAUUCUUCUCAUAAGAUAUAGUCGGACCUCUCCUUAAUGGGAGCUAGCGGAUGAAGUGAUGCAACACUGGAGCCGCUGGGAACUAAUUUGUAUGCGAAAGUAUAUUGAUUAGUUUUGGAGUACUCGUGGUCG
run_conditions: 37 °C
reported_metric: self-splicing fitness (ln)
Please give the numeric answer without any surrounding text.

Answered examples (5):
{"chain": "UGAGAGCAAUAUUACGAGGA", "self-splicing fitness (ln)": -2.83}
{"chain": "CGUCAGCAAUAUUACGAAUA", "self-splicing fitness (ln)": -1.98}
{"chain": "AGGUAGCAAUAUUACGAAUG", "self-splicing fitness (ln)": -1.83}
{"chain": "UGCGAGCAAUAUUACGGGGU", "self-splicing fitness (ln)": -3.12}
{"chain": "UUGUAGCAAUAUUACGACGU", "self-splicing fitness (ln)": -0.671}

*Q* Please list self-splicing fitness (ln) recorded for the sequence CAUGAGCAAUAUUACGCGCA
*A* -1.31

*Q* Please list self-splicing fitness (ln) recorded for the sequence UUCGAGCAAUAUUACGAUCU
*A* -1.83

*Q* Please list self-splicing fitness (ln) recorded for the sequence GUUAAGCAAUAUUACGUGUG
*A* -1.21

* * *

test_description: self-splicing fitness, log relative to wild type (ln ratio); higher = more splicing; Tetrahymena group I intron in knt gene, E. coli kanamycin selection, DiMSum; sequences stand for … in CUCUCU…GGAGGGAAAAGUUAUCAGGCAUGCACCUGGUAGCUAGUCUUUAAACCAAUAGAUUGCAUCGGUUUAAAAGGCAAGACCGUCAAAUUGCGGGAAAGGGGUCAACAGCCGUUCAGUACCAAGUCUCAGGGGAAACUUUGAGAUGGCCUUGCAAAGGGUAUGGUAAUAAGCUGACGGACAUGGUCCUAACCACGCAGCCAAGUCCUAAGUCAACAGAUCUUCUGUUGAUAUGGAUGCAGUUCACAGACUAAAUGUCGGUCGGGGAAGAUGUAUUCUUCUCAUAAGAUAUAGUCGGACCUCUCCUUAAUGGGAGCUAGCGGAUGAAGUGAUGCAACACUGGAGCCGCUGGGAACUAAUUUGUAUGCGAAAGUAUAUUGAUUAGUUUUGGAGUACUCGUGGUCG
run_conditions: 30 °C
# Lookup of reported self-splicing fitness (ln) keyed by entry
Please give the numeric answer without any surrounding text.

{"chain": "CACGAGCAAUAUUACGUGUG", "reported_metric": "self-splicing fitness (ln)", "measured": -3.48}
{"chain": "CUGUAGCAAUAUUACGUAAG", "reported_metric": "self-splicing fitness (ln)", "measured": -0.583}
{"chain": "UUCAAGCAAUAUUACGACGA", "reported_metric": "self-splicing fitness (ln)", "measured": -0.243}
{"chain": "UGAGAGCAAUAUUACGAGGA", "reported_metric": "self-splicing fitness (ln)", "measured": -3.49}

*Q* Please list self-splicing fitness (ln) recorded for the sequence CAGUAGCAAUAUUACGUGUC
*A* -3.74

*Q* Please list self-splicing fitness (ln) recorded for the sequence CCACAGCAAUAUUACGGCUU
*A* -3.62

*Q* Please list self-splicing fitness (ln) recorded for the sequence GGCUAGCAAUAUUACGGGAG
*A* -2.17

*Q* Please list self-splicing fitness (ln) recorded for the sequence CUCCAGCAAUAUUACGUGGG
*A* -3.29

*Q* Please list self-splicing fitness (ln) recorded for the sequence UCCCAGCAAUAUUACGGGCC
*A* -3.03

*Q* Please list self-splicing fitness (ln) recorded for the sequence GACGAGCAAUAUUACGGACC
*A* -1.34

*Q* Please list self-splicing fitness (ln) recorded for the sequence ACAUAGCAAUAUUACGAGGC
*A* -4.03

*Q* Please list self-splicing fitness (ln) recorded for the sequence UGAGAGCAAUAUUACGCAGU
*A* -4.62

*Q* Please list self-splicing fitness (ln) recorded for the sequence UUGCAGCAAUAUUACGCGAG
*A* -3.18
